Test description: qHTS of pediatric cancer cell lines to identify multiple opportunities for drug repurposing: Primary screen for A673 cells (AID 1347092); note: potency is the fitted concentration of half-maximal effect; nearly all actives have a fitted effect of over 45% in size
Test settings: A673 Ewing sarcoma viability, CellTiter-Glo ATP luminescence, 48 h; series mostly up to 46 µM
Inconclusive results are not listed. Activity calls are given as the source filed them. Calls come from the whole dose curve; as a rule, active = well fitted cell-killing curve with a large enough effect; inconclusive = small, poorly fitted or top-dose-only effect; inactive = no such curve, though single readings can be large or run the other way.
Measure name: Potency

Smiles structure	Meas value
O=C(CCCCCCNC(=O)c1cnc(N(c2ccccc2)c2ccccc2)nc1)NO	9.35 µM (active)
CCCCCN(CCC12CC3CC(CC(C3)C1)C2)C(=O)NCCCc1ccncc1	18.7 µM (active)
CCCCN1CCC(CNC(=O)c2c3n(c4ccccc24)CCCO3)CC1	1.48 µM (active)
CC(C)[C@H](C(=O)Nc1ccc(C(=O)NO)cc1)c1ccccc1	1.18 µM (active)

###

Test description: Quantitative High-Throughput drug screen in 47 multiple myeloma cell lines against the NCATS MIPE library collection: OPM1_PLB cell viability assay (AID 1918989); note: potency is the fitted concentration of half-maximal effect; nearly all actives have a fitted effect of over 40% in size
Test settings: CellTiter-Glo, 48 h; series mostly up to 45.8 µM
Source text: PI: Beverly A. Mock Ph.D. Laboratory of Cancer Biology and Genetics, Center for Cancer Research, National Cancer Institute, National Institute of Health, Bethesda, Maryland […] 5; Detector; 425V; Luminescence; Viewlux PerkinElmer. […] 1. […] Briefly, the corresponding myeloma cell lines were screened in 1,536-well plates with 500 cells, 5-uL per well for inhibition of cell viability (assessed by measuring ATP levels with CellTiterGlo). […]
Records with an inconclusive call do not appear. Calls of active or inactive are those of the source. The call rests on the fitted dose curve; in most records, active means well fitted cell-killing curve with a large enough effect; inconclusive means small, poorly fitted or top-dose-only effect, or effect the other way; inactive means no such curve, though single readings can be large or run the other way.
Measure name: Potency

Compound	Meas value
COCCOc1ccc2c(c1)ncn2-c1ccc2cccc(N3CCC(N)CC3)c2n1	0.0935 µM (active)
Cc1cc(Nc2cc(N3CCN(C)CC3)nc(C=Cc3ccccc3)n2)n[nH]1	3.82 µM (active)
CN(C)CCCN=c1c2ccccc2n(C)c2[nH]c(=O)n(C)c(=O)c12	6.62 µM (active)
COc1ccc(CC2SC(=O)NC2=O)cc1C(=O)NCc1ccc(C(F)(F)F)cc1 (stereo not given)	6.62 µM (active)

###

System tested: Tyrosine-protein kinase Yes (Homo sapiens) (UniProt P07947)
Sequence (P07947 whole entry, looked up): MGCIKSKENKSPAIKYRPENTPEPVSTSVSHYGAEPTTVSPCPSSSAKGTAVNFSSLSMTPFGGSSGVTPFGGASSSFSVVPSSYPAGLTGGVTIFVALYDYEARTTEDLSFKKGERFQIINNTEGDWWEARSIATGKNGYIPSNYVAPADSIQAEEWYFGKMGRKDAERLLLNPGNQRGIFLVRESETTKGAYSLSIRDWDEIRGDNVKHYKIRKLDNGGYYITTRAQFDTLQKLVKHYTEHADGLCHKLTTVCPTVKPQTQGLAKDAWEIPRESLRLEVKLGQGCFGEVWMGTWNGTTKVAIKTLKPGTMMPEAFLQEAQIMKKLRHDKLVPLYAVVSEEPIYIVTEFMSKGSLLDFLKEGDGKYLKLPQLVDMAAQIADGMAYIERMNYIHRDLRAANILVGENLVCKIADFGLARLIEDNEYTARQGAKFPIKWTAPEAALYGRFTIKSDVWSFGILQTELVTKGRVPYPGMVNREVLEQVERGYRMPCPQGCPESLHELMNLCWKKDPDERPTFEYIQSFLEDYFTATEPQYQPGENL
Test description: qHTS for small molecule inhibitors of Yes1 kinase: Primary Screen (AID 686947); note: nearly all actives have a fitted effect of over 60% in size
Test settings: Yes1 kinase biochemical qHTS inhibition; series mostly up to 76.9 µM
From the text: The Src family of non-receptor protein tyrosine kinases contains nine members, including Yes1, Src, Fyn, Lyn, and […]. These kinases have important roles in a variety of cellular functions, such as cell proliferation, survival, and differentiation. Src, the most well characterized member of this family, has been previously identified as a proto-oncogene. […] In melanoma, it has been shown that Yes1, and not other family members, such as Src, is functionally involved in the malignant phenotype. […]
Records with an inconclusive call do not appear. Calls of active or inactive are those of the source. Calls follow the shape of the dose curve; as a rule, active = well fitted inhibition curve with a large enough effect; inconclusive = small, poorly fitted or top-dose-only effect; inactive = no such curve, though single readings can be large or run the other way.
Outcome codes: label 1 (active), label 0 (inactive)

Compound	Class assignment
c1ccc2c(CCNc3ccc(Nc4ccncc4)cc3)c[nH]c2c1	label 0
CC1(O)CC(c2nc(-c3ccc4ccc(-c5ccccc5)nc4c3)c3c(N)nccn23)C1 (stereo not given)	label 1
CN(C)CCCN=c1c2ccccc2n(C)c2[nH]c(=O)n(C)c(=O)c12	label 0
CCCCCN(CCC12CC3CC(CC(C3)C1)C2)C(=O)NCCCc1ccncc1	label 0
Cn1cncc1[C@@](N)(c1ccc(Cl)cc1)c1ccc2c(c1)c(-c1cccc(Cl)c1)cc(=O)n2C	label 0
